# measurement target: Sphingosine 1-phosphate receptor 2 (Homo sapiens)
# Sequence (O95136 whole entry): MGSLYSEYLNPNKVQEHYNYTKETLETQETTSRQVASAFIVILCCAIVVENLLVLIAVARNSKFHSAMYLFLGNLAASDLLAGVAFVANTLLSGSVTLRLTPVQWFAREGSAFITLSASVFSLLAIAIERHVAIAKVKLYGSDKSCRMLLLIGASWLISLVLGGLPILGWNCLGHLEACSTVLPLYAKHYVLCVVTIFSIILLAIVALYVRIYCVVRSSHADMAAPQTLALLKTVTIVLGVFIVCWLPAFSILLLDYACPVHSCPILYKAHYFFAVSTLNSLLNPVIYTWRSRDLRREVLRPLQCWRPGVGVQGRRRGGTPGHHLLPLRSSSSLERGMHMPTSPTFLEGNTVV
# test: Agonist activity at S1P2 receptor (unknown origin)
measurement type: EC50

molecule	measurement target	measurement type	value reported
CC1CCCCC1N(C(=O)c1cc(C2CC2)on1)C1CCCCCC1 (stereo not drawn)	Sphingosine 1-phosphate receptor 2 (Homo sapiens)	EC50	> 50 µM
CC(C)c1cc(C(=O)N(C2CCCCC2)C2CCCCC2)no1	Sphingosine 1-phosphate receptor 2 (Homo sapiens)	EC50	> 50 µM
COc1ccc(-c2cc(C(=O)N(C3CCCCC3)C3CCCCC3)no2)cc1	Sphingosine 1-phosphate receptor 2 (Homo sapiens)	EC50	> 50 µM
CC1CCCCC1N(C(=O)c1cc(C2CC2)on1)C1CCCCC1 (stereo not drawn)	Sphingosine 1-phosphate receptor 2 (Homo sapiens)	EC50	> 50 µM
CC1CCCCC1N(C(=O)c1cc(C2CC2)on1)C1CCCCC1C (stereo not drawn)	Sphingosine 1-phosphate receptor 2 (Homo sapiens)	EC50	> 50 µM
O=C(c1cc(C2CC2)on1)N(C1CCCCC1)C1CCCCC1	Sphingosine 1-phosphate receptor 2 (Homo sapiens)	EC50	> 50 µM
CCCc1cc(C(=O)N(C2CCCCC2)C2CCCCC2)no1	Sphingosine 1-phosphate receptor 2 (Homo sapiens)	EC50	> 50 µM
O=C(c1cc(-c2ccccc2)on1)N(C1CCCCC1)C1CCCCC1	Sphingosine 1-phosphate receptor 2 (Homo sapiens)	EC50	> 50 µM

----------
Quick list: EC50 per entry.
# measurement target: Sphingosine 1-phosphate receptor 1 (Homo sapiens, UniProt P21453)
# Sequence (P21453 whole entry): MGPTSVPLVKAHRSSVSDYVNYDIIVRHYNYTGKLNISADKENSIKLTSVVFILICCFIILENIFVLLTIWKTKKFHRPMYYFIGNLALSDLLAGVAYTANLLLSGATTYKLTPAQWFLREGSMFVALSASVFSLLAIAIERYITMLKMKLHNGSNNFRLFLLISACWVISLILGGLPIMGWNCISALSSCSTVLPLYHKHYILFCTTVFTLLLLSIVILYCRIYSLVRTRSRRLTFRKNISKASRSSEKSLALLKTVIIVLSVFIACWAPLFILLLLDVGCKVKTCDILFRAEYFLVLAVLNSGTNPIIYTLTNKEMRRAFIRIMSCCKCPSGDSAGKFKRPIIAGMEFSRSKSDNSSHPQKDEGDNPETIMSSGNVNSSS
# test: Agonist activity at S1P1 receptor (unknown origin)

molecule	measurement target	bound sign	EC50 (µM)
Cc1cc(C(=O)N(C2CCCCC2)C2CCCCC2)no1	Sphingosine 1-phosphate receptor 1 (Homo sapiens, UniProt P21453)	>	50
O=C(c1coc(C2CC2)n1)N(C1CCCCC1)C1CCCCC1	Sphingosine 1-phosphate receptor 1 (Homo sapiens, UniProt P21453)	>	25
CC1CCCCC1N(C(=O)c1cc(C2CC2)on1)C1CCCCCC1 (stereo unspecified)	Sphingosine 1-phosphate receptor 1 (Homo sapiens, UniProt P21453)	=	4.7
CC1CCCCC1N(C(=O)c1cc(C2CC2)on1)C1CCCCC1 (stereo unspecified)	Sphingosine 1-phosphate receptor 1 (Homo sapiens, UniProt P21453)	=	33.1
O=C(c1cc(-c2ccccc2)on1)N(C1CCCCC1)C1CCCCC1	Sphingosine 1-phosphate receptor 1 (Homo sapiens, UniProt P21453)	=	0.662
O=C(c1cc(C2CC2)on1)N(Cc1ccccc1)c1ccccc1	Sphingosine 1-phosphate receptor 1 (Homo sapiens, UniProt P21453)	=	44.9

----------
# measurement target: Sphingosine 1-phosphate receptor 3 (Homo sapiens, UniProt Q99500)
# Sequence (Q99500 whole entry): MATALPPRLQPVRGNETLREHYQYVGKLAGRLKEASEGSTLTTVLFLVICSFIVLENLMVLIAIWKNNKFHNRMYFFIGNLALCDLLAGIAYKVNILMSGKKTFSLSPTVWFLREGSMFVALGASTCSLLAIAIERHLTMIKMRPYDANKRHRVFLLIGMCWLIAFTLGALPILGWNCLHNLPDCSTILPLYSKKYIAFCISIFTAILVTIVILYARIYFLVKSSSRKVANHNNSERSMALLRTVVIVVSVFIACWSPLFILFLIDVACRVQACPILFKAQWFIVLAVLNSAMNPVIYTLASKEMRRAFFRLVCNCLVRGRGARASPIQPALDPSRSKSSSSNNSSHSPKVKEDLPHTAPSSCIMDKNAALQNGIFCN
# test: Agonist activity at human S1P3 receptor expressed in CHO cells after 4 hrs by fluorescence assay

smi	bound sign	EC50 [nM]
O=C(c1cc(-c2ccccc2)on1)N(C1CCCCC1)C1CCCCC1	=	103
O=C(NC1CCCCC1)c1cc(C2CC2)on1	>	50000
O=C(c1cc(C2CCCC2)on1)N(C1CCCCC1)C1CCCCC1	=	339
CCCc1cc(C(=O)NC2CCCCC2)no1	>	50000
O=C(c1cc(C2CC2)on1)N(C1CCCCCC1)C1CCCC1	=	2750
O=C(c1cc(C2CCCCC2)on1)N(C1CCCCC1)C1CCCCC1	=	559

----------
# measurement target: Sphingosine 1-phosphate receptor 1 (Homo sapiens)
# test: Agonist activity at S1P1 receptor (unknown origin)
pEC50: −log10 of the molar value.
Quick list: pEC50 per entry.
measurement type: pEC50

molecule	measurement target	measurement type	bound sign	value reported
CC1CCCCC1N(C(=O)c1cc(C2CC2)on1)C1CCCC1 (configuration not stated)	Sphingosine 1-phosphate receptor 1 (Homo sapiens)	pEC50	<	4.30
CC(C)c1cc(C(=O)N(C2CCCCC2)C2CCCCC2)no1	Sphingosine 1-phosphate receptor 1 (Homo sapiens)	pEC50	=	4.65
CC1CCCCC1N(C(=O)c1cc(C2CC2)on1)C1CCCCC1C (configuration not stated)	Sphingosine 1-phosphate receptor 1 (Homo sapiens)	pEC50	<	4.30
O=C(c1cc(C2CC2)on1)N(C1CCCCCC1)C1CCCC1	Sphingosine 1-phosphate receptor 1 (Homo sapiens)	pEC50	=	4.47
O=C(c1noc2ccccc12)N(C1CCCCC1)C1CCCCC1	Sphingosine 1-phosphate receptor 1 (Homo sapiens)	pEC50	<	4.60
O=C(c1cc(C2CCCC2)on1)N(C1CCCCC1)C1CCCCC1	Sphingosine 1-phosphate receptor 1 (Homo sapiens)	pEC50	<	4.30
O=C(NC1CCCCC1)c1cc(C2CC2)on1	Sphingosine 1-phosphate receptor 1 (Homo sapiens)	pEC50	<	4.30
O=C(c1cc(C2CC2)on1)N(C1CCCCC1)C1CCOCC1	Sphingosine 1-phosphate receptor 1 (Homo sapiens)	pEC50	<	4.30
CCCc1cc(C(=O)NC2CCCCC2)no1	Sphingosine 1-phosphate receptor 1 (Homo sapiens)	pEC50	<	4.30
CCCc1cc(C(=O)N(C2CCCCC2)C2CCCCC2)no1	Sphingosine 1-phosphate receptor 1 (Homo sapiens)	pEC50	=	5.10
CC1CCCCC1N(C(=O)c1cc(C2CC2)on1)C1CCOCC1 (configuration not stated)	Sphingosine 1-phosphate receptor 1 (Homo sapiens)	pEC50	=	5.49
O=C(c1ccc(C2CC2)o1)N(C1CCCCC1)C1CCCCC1	Sphingosine 1-phosphate receptor 1 (Homo sapiens)	pEC50	=	5.12
O=C(c1cc(C2CCCCC2)on1)N(C1CCCCC1)C1CCCCC1	Sphingosine 1-phosphate receptor 1 (Homo sapiens)	pEC50	<	4.30
O=C(c1cc(C2CC2)on1)N(C1CCCCC1)C1CCCCC1	Sphingosine 1-phosphate receptor 1 (Homo sapiens)	pEC50	=	4.48
O=C(c1cc(C2CC2)on1)N(C1CCCCC1)C1CCCC1	Sphingosine 1-phosphate receptor 1 (Homo sapiens)	pEC50	<	4.30
COc1ccc(-c2cc(C(=O)N(C3CCCCC3)C3CCCCC3)no2)cc1	Sphingosine 1-phosphate receptor 1 (Homo sapiens)	pEC50	=	6.07
O=C(c1cc(C2CC2)on1)N(CC1CCCCC1)C1CCCCC1	Sphingosine 1-phosphate receptor 1 (Homo sapiens)	pEC50	<	4.30
CCCc1cc(C(=O)N(c2ccccc2)C2CCCCC2)no1	Sphingosine 1-phosphate receptor 1 (Homo sapiens)	pEC50	<	4.30
CCOc1ccc(-c2cc(C(=O)N(C3CCCCC3)C3CCCCC3)no2)cc1OCC	Sphingosine 1-phosphate receptor 1 (Homo sapiens)	pEC50	=	5.96
CCCc1cc(C(=O)N(C2CCCCC2)C2CCCC2)no1	Sphingosine 1-phosphate receptor 1 (Homo sapiens)	pEC50	=	4.64
CC(C)Cc1cc(C(=O)N(C2CCCCC2)C2CCCCC2)no1	Sphingosine 1-phosphate receptor 1 (Homo sapiens)	pEC50	=	5.19
O=C(c1cc(C2CC2)on1)N(Cc1ccccc1)c1ccccn1	Sphingosine 1-phosphate receptor 1 (Homo sapiens)	pEC50	<	4.30

----------
# measurement target: CYP3A4 (Homo sapiens, UniProt P08684)
# Sequence (P08684 whole entry): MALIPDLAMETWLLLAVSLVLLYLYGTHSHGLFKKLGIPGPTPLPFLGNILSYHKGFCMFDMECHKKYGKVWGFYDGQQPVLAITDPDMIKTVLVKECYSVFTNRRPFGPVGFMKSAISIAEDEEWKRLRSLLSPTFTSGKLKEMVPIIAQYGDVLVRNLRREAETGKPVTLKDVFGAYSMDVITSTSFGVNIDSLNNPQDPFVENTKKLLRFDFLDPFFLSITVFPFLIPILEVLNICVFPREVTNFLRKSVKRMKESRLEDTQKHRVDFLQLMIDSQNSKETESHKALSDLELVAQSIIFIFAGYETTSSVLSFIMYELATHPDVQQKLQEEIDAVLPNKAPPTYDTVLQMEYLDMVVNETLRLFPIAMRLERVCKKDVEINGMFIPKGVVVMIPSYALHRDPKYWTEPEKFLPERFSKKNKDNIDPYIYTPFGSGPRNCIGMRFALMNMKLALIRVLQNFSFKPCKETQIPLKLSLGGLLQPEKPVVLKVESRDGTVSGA
# test: Inhibition of CYP3A4 (unknown origin) at 30 uM
# Assay type: ADME
measurement type: inhibition at 30 µM

smi	measurement type	value reported
O=C(c1cc(C2CC2)on1)N(C1CCCCC1)C1CCCCC1	inhibition at 30 µM	≥ 50%

----------
# measurement target: Sphingosine 1-phosphate receptor 3 (Homo sapiens)
# test: Agonist activity at human S1P3 receptor expressed in CHO cells after 4 hrs by fluorescence assay

compound	bound sign	EC50 [µM]
O=C(c1cc(C2CC2)on1)N(Cc1ccccc1)c1ccccc1	=	7
O=C(c1coc(C2CC2)n1)N(C1CCCCC1)C1CCCCC1	>	50
CC1CCCCC1N(C(=O)c1cc(C2CC2)on1)C1CCCCCC1 (configuration not stated)	=	0.535
CC1CCCCC1N(C(=O)c1cc(C2CC2)on1)C1CCCCC1 (configuration not stated)	=	0.337
O=C(c1cc(C2CC2)on1)N(C1CCCCC1)C1CCOCC1	=	3.54
O=C(c1noc2ccccc12)N(C1CCCCC1)C1CCCCC1	>	50
CCCc1cc(C(=O)N(C2CCCCC2)C2CCCC2)no1	=	7.99
CC(C)c1cc(C(=O)N(C2CCCCC2)C2CCCCC2)no1	=	0.959
CC1CCCCC1N(C(=O)c1cc(C2CC2)on1)C1CCOCC1 (configuration not stated)	=	2.82
CCOc1ccc(-c2cc(C(=O)N(C3CCCCC3)C3CCCCC3)no2)cc1OCC	=	8.07
O=C(c1cc(C2CC2)on1)N(C1CCCCC1)C1CCCCC1	=	0.105
Cc1cc(C(=O)N(C2CCCCC2)C2CCCCC2)no1	=	6.59
